Experiment: Visual interaction of active ingredient with polyelectrolyte PAA
Assay type: physicochemical
Conditions: ratio active ingredient:PAA 1:10 (w/w)
Experimental: To determine interaction between polyelectrolytes (PE; Table 1) and active ingredients (AI; Table 2) aqueous stock solutions of about 200 g/L of the PE and of the active ingredients were prepared. The polyelectrolytes were diluted in water and stirred on magnetic stirrer for at least 30 minutes until a homogenous clear solution was obtained (ratios and amounts are presented in Table 4). […]
measuredAttribute: Visual observation category, Active ingredient: PAA

[[record]]
compound = "N.N.O=[PH](O)O [(NH4)2HPO3]"
recordedmeasurement = "N"

[[record]]
compound = "O=C(O)[C@@H]1CCCN1 [Proline]"
recordedmeasurement = "N"

[[record]]
compound = "CNC(=N[N+](=O)[O-])NCc1cnc(Cl)s1 [Clothianidin]"
recordedmeasurement = "N"

[[record]]
compound = "C[C@@H]1C/C=C/C=C/C=C/C=C/[C@H](O[C@@H]2O[C@H](C)[C@@H](O)[C@H](N)[C@@H]2O)C[C@@H]2O[C@](O)(C[C@@H](O)C[C@H]3O[C@@H]3/C=C/C(=O)O1)C[C@H](O)[C@H]2C(=O)O [Natamycin]"
recordedmeasurement = "N"

[[record]]
compound = "O=[N+]([O-])/N=C1\\NCCN1Cc1ccc(Cl)nc1 [Imidacloprid]"
recordedmeasurement = "N"

[[record]]
compound = "CCO[PH](=O)O [Fosetyl Al]"
recordedmeasurement = "N"

[[record]]
compound = "COc1c(Cl)ccc(Cl)c1C(=O)O [Dicamba, 3,6-dichloro-2-methoxybenzoic acid]"
recordedmeasurement = "N"

[[record]]
compound = "O=[PH]([O-])[O-].[Na+].[Na+] [Na2HPO3]"
recordedmeasurement = "N"

[[record]]
compound = "O=[PH]([O-])[O-].[K+].[K+] [K2HPO3]"
recordedmeasurement = "N"

[[record]]
compound = "O=C(O)CNCP(=O)(O)O [Glyphosate, N-(phosphonomethyl)glycine]"
recordedmeasurement = "N"

